- target_or_system: Cytochrome P450 1A2 (Homo sapiens) (UniProt P05177)
- Sequence (P05177 whole entry, looked up): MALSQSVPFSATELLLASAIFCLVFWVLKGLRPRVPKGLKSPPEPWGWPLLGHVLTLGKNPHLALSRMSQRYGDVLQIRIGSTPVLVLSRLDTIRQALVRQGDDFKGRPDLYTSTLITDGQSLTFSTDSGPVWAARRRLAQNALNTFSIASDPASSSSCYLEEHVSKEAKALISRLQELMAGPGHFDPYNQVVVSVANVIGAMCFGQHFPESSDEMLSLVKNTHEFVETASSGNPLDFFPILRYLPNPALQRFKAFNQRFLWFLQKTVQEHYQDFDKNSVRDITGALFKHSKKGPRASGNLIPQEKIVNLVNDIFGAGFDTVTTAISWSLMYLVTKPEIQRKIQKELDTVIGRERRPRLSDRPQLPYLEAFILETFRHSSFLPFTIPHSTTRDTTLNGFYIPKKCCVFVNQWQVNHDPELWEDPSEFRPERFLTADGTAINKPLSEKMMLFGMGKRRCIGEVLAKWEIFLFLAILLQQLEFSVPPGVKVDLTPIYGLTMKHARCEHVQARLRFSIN
- assay_procedure: Cytochrome panel assay with activity outcomes
- condition_context: recombinant CYP, pro-luciferin dealkylation, luminescence, p450-cyp1a2; series mostly up to 57.1 µM
Among all 16,000 compounds or so, about 5,700 (36%) were called active. About 24% were inconclusive and are not listed. The call rests on the fitted dose curve; in most records, active means well fitted curve in the direction sought with a large enough effect; inconclusive means small, poorly fitted or top-dose-only effect, or effect the other way; inactive means no such curve, though single readings can be large or run the other way. Some of the results follow.
Your reply should match one of these outcome classes. class 1 = active, class 0 = inactive

Below, 6 compounds whose answers are already recorded.
Record lookup: outcome of this test for CC1(C)C2([N+](=O)[O-])CN3CC1([N+](=O)[O-])CN(C2)C3c1ccccc1 (stereo not given) ? class 0

Test call for this compound, please: Cc1ccc(NC(=O)NNC(=O)Cn2nc(-c3ccccc3)c(-c3ccccc3)c(C#N)c2=O)cc1 class 0

# fetch the recorded call for CC(=O)NC(C)C(c1cccs1)N1CCN(c2ccccc2)CC1 (stereo not given) here class 0

Outcome? NC(=O)[C@H]1CC2(CC(c3cccc(NC(=O)c4ccccc4)c3)=NO2)CN1C(=O)[C@H]1CCC(=O)N1 (stereo not given in full) class 0

Please share the test call associated with Cc1nc2c(c(-c3ccccc3)c1C#N)C(=O)c1ccccc1-2 . class 1

Please indicate how the test categorized Fc1ccc([C@H]2CCNC[C@H]2COc2ccc3c(c2)OCO3)cc1 . class 1

More entries:
Lab log entry: CCOC(=O)c1sc(C)c(C(=O)NCC(C)(C)CN(C)C)c1N — outcome as called in the assay? class 0

Hey, what did the test say about Cc1ccccc1NC(=O)OCc1cn(-c2ccc(Cl)cc2)nn1 ? class 1

Lab log entry: CCOC(=O)c1nc(N)sc1C(=O)OCC — outcome as called in the assay? class 1

Just curious, what result did CC(C)(C)C(=O)N1CCC(O)(CS(=O)(=O)Cc2ccc(Cl)cc2)CC1 get here? class 0

====

- target_or_system: Cytochrome P450 1A2 (Homo sapiens)
- assay_procedure: Cytochrome panel assay with activity outcomes
- condition_context: recombinant CYP, pro-luciferin dealkylation, luminescence, p450-cyp1a2; series mostly up to 57.1 µM
The campaign covered roughly 16,000 compounds. About 5,700 (36%) were called active. Another 24% or so got no clear call; they are omitted. Calls follow the shape of the dose curve; as a rule, active = well fitted curve in the direction sought with a large enough effect; inconclusive = small, poorly fitted or top-dose-only effect, or effect the other way; inactive = no such curve, though single readings can be large or run the other way. Some of the results follow.
Respond only with the outcome that fits, drawn from active, inactive

These recorded examples may help you get a feel for the data.
Which outcome did this test record for the compound CCCCCn1c(=O)c(C(=O)c2ccccc2)nc2ccccc21 ? active

Per the records of this test, what outcome belongs to CCOC(=O)C1=C(c2ccccc2)OC(N)=C(C#N)C1c1ccc(Cl)s1 (centres undefined) ? active

Write down the call the test reported for this compound. Item: O=C(c1ccccc1)c1nc2ccccc2n(CCCn2c(=O)c(C(=O)c3ccccc3)nc3ccccc32)c1=O inactive

In this assay, the call recorded for COc1ccc(-n2c(-c3ccccc3)nc(=S)c3c2CCCC3)cc1 was what? inactive

For this compound, state the assay outcome: CCSc1nnc(-c2ccccc2NC(C)=O)c(=O)[nH]1 inactive

Next:
Lab log entry: Cc1cc(C(F)F)n2nc(C(=O)Nc3sc4c(c3C#N)CCC(C)C4)nc2n1 (centres undefined) — outcome as called in the assay? inactive

Please share the test call associated with O=c1ccc(Oc2nc(N3CCOCC3)nc(N3CCOCC3)n2)n[nH]1 . inactive

What did this assay record as the result for COc1ccccc1CNCc1cccs1 ? active

Which outcome was entered for the compound COCCn1c(=O)c(-c2cccc(Cl)c2)nc2cncnc21 in this test? active

Please share the test call associated with CN(C)Cc1ccccc1-c1cc(NCc2ccccc2)ncn1 . inactive

Dear colleague, could you share the recorded outcome for CC(C)(C)c1ccc(OCC(=O)NNC(=O)CCc2ccccc2)cc1 when you have a moment? inactive

Short answer needed: outcome of this test for Cc1noc(C)c1C(=O)N1CCC2(CCCN(c3ccncc3)C2)CC1 ? inactive

Dear colleague, could you share the recorded outcome for Cn1c(=O)n(C)c2cc(S(=O)(=O)O)ccc21 when you have a moment? inactive

// param item: S=c1nc(-c2ccccc2)oc2c1CCCC2 ; yields the recorded call active

Can you look up the reported call for CC(C)(C)C(=O)NC(c1ccc(Cl)cc1)[C@]1(C)C[C@H]1C1CCCCC1 (some centres undefined) for me? inactive

Please share the test call associated with Cn1c(=O)n(C)c2cc(/C=N/n3cnnc3)ccc21 . active

Hey, what did the test say about O=C(N[C@@H](Cc1ccccc1)C(=O)CCl)OCc1ccccc1 ? active

Which outcome was assigned to COC(=O)[C@@]1(Cc2ccc(F)cc2)[C@H]2c3cc(C(=O)N(C)C)n(CCCNc4ccc(C(F)(F)F)cc4Cl)c3C[C@H]2CN1C(=O)c1ccccc1 in this test? inactive

Lab log entry: Cc1ccc(C)n1N1C(=O)/C(=C\c2ccc(Cl)cc2)SC1=S — outcome as called in the assay? active

# lookup: test call for COC(=O)c1ccc(Oc2nc(N(C)C)nc(N3CCOCC3)n2)cc1 active

Which outcome was entered for the compound Cc1[nH]c2c(C)cccc2c1CCNC(=O)c1ccc2c(c1[N+](=O)[O-])C(=O)c1ccccc1C2=O in this test? inactive

Could you check what this test reported for NC/C=C\C(=O)O ? inactive
